- run description: Ratio of plasma concentration in po dosed dog at 8 hrs to EC50 for genotype 1b Hepatitis C virus bicistronic replicon Con1 infected in human Huh7 cells
- Assay type: ADME, organism-based, Huh-7
- test parameters: in vivo
Response field label: string, one of Criterion met (Ratio strictly below 10) or Criterion not met.

Input COc1cnc2c(c1)c(C#N)c(-c1ccc(S(=O)(=O)N[C@@H](C)C(F)(F)F)cn1)n2C1CCC1 ; condition: Ratio strictly below 10. Does it hold?
Criterion met

====

- run description: Ratio of plasma concentration in Sprague-Dawley rat at 10 mg/kg, po administered as single dose after 6 hrs to EC50 for genotype 1b Hepatitis C virus bicistronic replicon Con1 infected in human HuH7 cells
- Assay type: ADME, organism-based, Huh-7
- Parameters: dose 10 mg/kg, route oral
- test parameters: in vivo
parameter: Ratio
Output spec: single numeric token, no unit.

Some solved cases for reference:
COc1cnc2c(c1)c(C#N)c(-c1ccc(S(=O)(=O)N[C@@H](C)C(F)(F)F)cn1)n2C1CCC1; 30
Cc1cnc2c(c1)c(C#N)c(-c1ccc(S(=O)(=O)N[C@@H](C)C(F)(F)F)cn1)n2C1CCC1; 55
C[C@H](NS(=O)(=O)c1ccc(-c2c(C#N)c3cc(C(F)(F)F)cnc3n2C2CCC2)nc1)C(F)(F)F; 503
CCc1cnc2c(c1)c(C#N)c(-c1ccc(S(=O)(=O)N[C@@H](C)C(F)(F)F)cn1)n2C1CCC1; 27
C[C@H](NS(=O)(=O)c1ccc(-c2c(C#N)c3cc(F)cnc3n2C2CCC2)nc1)C(F)(F)F; 23
C[C@H](NS(=O)(=O)c1ccc(-c2c(C#N)c3cc(OC(F)F)cnc3n2C2CCC2)nc1)C(F)(F)F; 36

response.value for C[C@H](NS(=O)(=O)c1ccc(-c2c(C#N)c3cc(Cl)cnc3n2C2CCC2)nc1)C(F)(F)F (field: Ratio) = 22

response.value for C[C@H](NS(=O)(=O)c1ccc(-c2c(C#N)c3cc(C4CC4)cnc3n2C2CCC2)nc1)C(F)(F)F (field: Ratio) = 32

response.value for C[C@H](NS(=O)(=O)c1ccc(-c2c(C#N)c3cc(Cl)cnc3n2C2CCCC2)nc1)C(F)(F)F (field: Ratio) = 40

====

- run description: Toxicity in human HuH7 cells infected with genotype 1b Hepatitis C virus bicistronic replicon Con1 assessed as reduction in GAPDH RNA after 3 days by RT-PCR analysis
- Assay type: cell-based, Huh-7
parameter: IC50 at 3 days

response.value for Cc1cnc2c(C#N)c(-c3ccc(S(=O)(=O)N[C@@H](C)C(F)(F)F)cn3)n(C3CCC3)c2c1 (field: IC50 at 3 days) = > 10 µM

response.value for C[C@H](NS(=O)(=O)c1ccc(-c2c(C#N)c3ncc(Cl)cc3n2C2CCC2)nc1)C(F)(F)F (field: IC50 at 3 days) = 2.5 µM

response.value for CCc1cnc2c(c1)c(C#N)c(-c1ccc(S(=O)(=O)N[C@@H](C)C(F)(F)F)cn1)n2C1CCC1 (field: IC50 at 3 days) = > 5.16 µM

response.value for COc1cnc2c(c1)c(C#N)c(-c1ccc(S(=O)(=O)N[C@@H](C)C(F)(F)F)cn1)n2C1CCC1 (field: IC50 at 3 days) = > 9 µM

response.value for C[C@H](NS(=O)(=O)c1ccc(-c2c(C#N)c3cc(F)cnc3n2C2CCC2)nc1)C(F)(F)F (field: IC50 at 3 days) = > 10 µM

====

- run description: Toxicity in human HuH7 cells infected with genotype 1b Hepatitis C virus bicistronic replicon Con1 assessed as reduction in GAPDH RNA after 3 days by RT-PCR analysis
- Type: cell-based, Huh-7
parameter: IC50 at 3 days

Some solved cases for reference:
COc1cnc2c(c1)c(C#N)c(-c1ccc(S(=O)(=O)N[C@@H](C)C(F)(F)F)cn1)n2C1CCCC1; > 10 µM
Cc1cnc2c(c1)c(C#N)c(-c1ncc(S(=O)(=O)N[C@@H](C)C(F)(F)F)cn1)n2C1CCC1; > 10 µM
Cc1cnc2c(c1)c(C#N)c(-c1ccc(S(=O)(=O)N[C@@H](C)C(F)(F)F)cn1)n2C1CCC1; > 10 µM
Cc1cnc2c(c1)c(C#N)c(-c1ccc(S(=O)(=O)N[C@@H](C)C(F)(F)F)cc1)n2C1CCC1; > 10 µM
Cc1cc2c(C#N)c(-c3ccc(S(=O)(=O)N[C@@H](C)C(F)(F)F)cn3)n(C3CCC3)c2cn1; > 10 µM
CC(C)Oc1cnc2c(c1)c(C#N)c(-c1ccc(S(=O)(=O)N[C@@H](C)C(F)(F)F)cn1)n2C1CCC1; > 10 µM

response.value for C[C@H](NS(=O)(=O)c1ccc(-c2c(C#N)c3cc(C(F)(F)F)cnc3n2C2CCC2)nc1)C(F)(F)F (field: IC50 at 3 days) = > 10 µM

response.value for C[C@H](NS(=O)(=O)c1ccc(-c2c(C#N)c3cc(Cl)ncc3n2C2CCC2)nc1)C(F)(F)F (field: IC50 at 3 days) = > 10 µM

====

- run description: Ratio of drug level in liver to plasma Sprague-Dawley rat plasma at 10 mg/kg, po administered as single dose by LC-MS/MS analysis
- Assay type: ADME, organism-based
- Set-up: dose 10 mg/kg, route oral
parameter: Kp
Output spec: single numeric token, no unit.

Some solved cases for reference:
C[C@H](NS(=O)(=O)c1ccc(-c2c(C#N)c3cc(OC(F)F)cnc3n2C2CCC2)nc1)C(F)(F)F; 7
COc1cnc2c(c1)c(C#N)c(-c1ccc(S(=O)(=O)N[C@@H](C)C(F)(F)F)cn1)n2C1CCC1; 14

response.value for CCc1cnc2c(c1)c(C#N)c(-c1ccc(S(=O)(=O)N[C@@H](C)C(F)(F)F)cn1)n2C1CCC1 (field: Kp) = 13

response.value for C[C@H](NS(=O)(=O)c1ccc(-c2c(C#N)c3cc(C(F)(F)F)cnc3n2C2CCC2)nc1)C(F)(F)F (field: Kp) = 44

response.value for C[C@H](NS(=O)(=O)c1ccc(-c2c(C#N)c3cc(C4CC4)cnc3n2C2CCC2)nc1)C(F)(F)F (field: Kp) = 11

response.value for C[C@H](NS(=O)(=O)c1ccc(-c2c(C#N)c3cc(Cl)cnc3n2C2CCC2)nc1)C(F)(F)F (field: Kp) = 23

====

- Test system: Hepatitis C virus
- run description: Antiviral activity against genotype 1b Hepatitis C virus bicistronic replicon Con1 infected in human HuH7 cells after 3 days by RT-PCR analysis
- Assay type: functional, cell-based, Hepacivirus hominis
- test parameters: genotype 1b Con1, Huh-7, 72 h
param class (str): category from EC50; see ranges low bin: < 0.05 µM; mid bin: ≥ 0.05 µM and < 0.2 µM; high bin: ≥ 0.2 µM

Answered examples (3):
COc1ncc2c(C#N)c(-c3ccc(S(=O)(=O)N[C@@H](C)C(F)(F)F)cn3)n(C3CCC3)c2n1; high bin
Cc1cnc2c(C#N)c(-c3ccc(S(=O)(=O)N[C@@H](C)C(F)(F)F)cn3)n(C3CCC3)c2c1; mid bin
Cc1cnc2c(c1)c(C#N)c(-c1ccc(S(=O)(=O)N[C@@H](C)C(F)(F)F)cn1)n2C1CCC1; low bin

Any idea which band Cc1cc2c(C#N)c(-c3ccc(S(=O)(=O)N[C@@H](C)C(F)(F)F)cn3)n(C3CCC3)c2cn1 is in?
high bin

Any idea which band C[C@H](NS(=O)(=O)c1ccc(-c2c(C#N)c3cc(C(F)(F)F)cnc3n2C2CCC2)nc1)C(F)(F)F is in?
low bin

Any idea which band Cc1cc2c(cn1)c(C#N)c(-c1ccc(S(=O)(=O)N[C@@H](C)C(F)(F)F)cn1)n2C1CCC1 is in?
high bin

Any idea which band CCCOc1cnc2c(c1)c(C#N)c(-c1ccc(S(=O)(=O)N[C@@H](C)C(F)(F)F)cn1)n2C1CCC1 is in?
high bin

Any idea which band COc1cnc2c(c1)c(C#N)c(-c1ccc(S(=O)(=O)N[C@@H](C)C(F)(F)F)cn1)n2C1CCCC1 is in?
mid bin

Any idea which band C[C@H](NS(=O)(=O)c1ccc(-c2c(C#N)c3cc(Cl)cnc3n2C2CCC2)nc1)C(F)(F)F is in?
low bin

Any idea which band C[C@H](NS(=O)(=O)c1ccc(-c2c(C#N)c3cc(F)cnc3n2C2CCC2)nc1)C(F)(F)F is in?
low bin

Any idea which band COc1ccc2c(C#N)c(-c3ccc(S(=O)(=O)N[C@@H](C)C(F)(F)F)cn3)n(C3CCC3)c2n1 is in?
high bin

Any idea which band CC(C)Oc1cnc2c(c1)c(C#N)c(-c1ccc(S(=O)(=O)N[C@@H](C)C(F)(F)F)cn1)n2C1CCC1 is in?
high bin

Any idea which band C[C@H](NS(=O)(=O)c1ccc(-c2c(C#N)c3cc(Cl)ncc3n2C2CCC2)nc1)C(F)(F)F is in?
high bin

Any idea which band C[C@H](NS(=O)(=O)c1ccc(-c2c(C#N)c3cnc(Cl)cc3n2C2CCC2)nc1)C(F)(F)F is in?
high bin

Any idea which band C[C@H](NS(=O)(=O)c1ccc(-c2c(C#N)c3cc(C4CC4)cnc3n2C2CCC2)nc1)C(F)(F)F is in?
low bin

Any idea which band Cc1cnc2c(c1)c(C#N)c(-c1ncc(S(=O)(=O)N[C@@H](C)C(F)(F)F)cn1)n2C1CCC1 is in?
mid bin

Any idea which band Cc1cnc2c(c1)c(C#N)c(-c1ccc(S(=O)(=O)N[C@@H](C)C(F)(F)F)cc1)n2C1CCC1 is in?
mid bin

Any idea which band C[C@H](NS(=O)(=O)c1ccc(-c2c(C#N)c3ccc(Cl)nc3n2C2CCC2)nc1)C(F)(F)F is in?
high bin

Any idea which band CCc1cnc2c(c1)c(C#N)c(-c1ccc(S(=O)(=O)N[C@@H](C)C(F)(F)F)cn1)n2C1CCC1 is in?
low bin

Any idea which band COc1cnc2c(c1)c(C#N)c(-c1ccc(S(=O)(=O)N[C@@H](C)C(F)(F)F)cn1)n2C1CCC1 is in?
low bin

Any idea which band C[C@H](NS(=O)(=O)c1ccc(-c2c(C#N)c3cnc(OC(F)F)nc3n2C2CCC2)nc1)C(F)(F)F is in?
high bin

Any idea which band C[C@H](NS(=O)(=O)c1ccc(-c2c(C#N)c3cc(Cl)cnc3n2CC2CC2)nc1)C(F)(F)F is in?
low bin
